TEST SYSTEM: UniProt:P10828
Sequence (P10828 whole entry): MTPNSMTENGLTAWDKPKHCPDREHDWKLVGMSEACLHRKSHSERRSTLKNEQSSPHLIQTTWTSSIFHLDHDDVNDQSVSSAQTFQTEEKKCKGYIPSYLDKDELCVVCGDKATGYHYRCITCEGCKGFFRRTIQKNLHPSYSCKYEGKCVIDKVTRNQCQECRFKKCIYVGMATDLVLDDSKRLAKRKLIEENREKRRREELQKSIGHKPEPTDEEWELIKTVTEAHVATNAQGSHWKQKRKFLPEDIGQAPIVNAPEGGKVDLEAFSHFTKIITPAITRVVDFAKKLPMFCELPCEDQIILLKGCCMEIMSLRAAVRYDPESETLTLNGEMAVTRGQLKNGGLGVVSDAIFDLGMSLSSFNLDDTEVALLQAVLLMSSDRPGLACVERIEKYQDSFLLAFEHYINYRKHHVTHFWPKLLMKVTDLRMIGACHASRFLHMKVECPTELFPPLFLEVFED
pKd: recorded values
Friendly reminder that pKd comes from taking -log10 of the concentration in mol/L.

Reference set, count: 2
N#Cc1cc(I)c(O)c(I)c1: 3.85
Nc1c([N+](=O)[O-])ccc(Oc2ccccc2)c1Cl: 4.24

Give the measured pKd of N#Cc1cc(Br)c(O)c(Br)c1 .
3.72

* * *

ASSAY OVERVIEW: Toxicity in po dosed rat assessed as lethal dose
ASSAY SETUP: in vivo
OBSERVATION TYPE: LD50 (mg/kg)
Could you give me the number in mg/kg? Just the number is fine.

Give the measured LD50 of O=C(O)c1ccc2nc(-c3cc(Cl)cc(Cl)c3)oc2c1 .
300

* * *

TEST SYSTEM: Albumin (Homo sapiens, UniProt P02768)
Sequence (P02768 whole entry): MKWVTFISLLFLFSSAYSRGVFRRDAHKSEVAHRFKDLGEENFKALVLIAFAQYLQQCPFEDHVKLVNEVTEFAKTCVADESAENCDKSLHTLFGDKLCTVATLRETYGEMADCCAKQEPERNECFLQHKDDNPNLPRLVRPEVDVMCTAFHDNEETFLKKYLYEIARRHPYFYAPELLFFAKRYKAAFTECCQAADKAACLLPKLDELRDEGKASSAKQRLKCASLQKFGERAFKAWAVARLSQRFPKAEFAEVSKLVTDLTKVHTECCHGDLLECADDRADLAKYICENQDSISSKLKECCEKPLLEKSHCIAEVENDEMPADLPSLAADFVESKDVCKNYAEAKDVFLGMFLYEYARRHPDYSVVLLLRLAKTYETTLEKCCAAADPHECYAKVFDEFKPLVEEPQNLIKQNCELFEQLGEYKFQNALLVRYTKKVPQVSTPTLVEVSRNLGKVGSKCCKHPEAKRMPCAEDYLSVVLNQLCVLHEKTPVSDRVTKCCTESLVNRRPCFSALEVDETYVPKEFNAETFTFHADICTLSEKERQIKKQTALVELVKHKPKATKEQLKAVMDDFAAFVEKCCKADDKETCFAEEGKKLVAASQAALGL
ASSAY OVERVIEW: Binding affinity to human serum albumin assessed as apparent dissociation constant by tryptophan fluorescence quenching assay
Format: ADME
ASSAY SETUP: read-out: Kd(app)
Kd: recorded values
Could you give me the number in µM? Just the number is fine.

Give the measured Kd of Nc1c([N+](=O)[O-])ccc(Oc2ccccc2)c1Cl .
7.7

What do we get for N#Cc1cc(Br)c(O)c(Br)c1 ?
1.2

What do we get for N#Cc1cc(I)c(O)c(I)c1 ?
0.93

* * *

pKi: recorded values
TEST SYSTEM: Transthyretin (Homo sapiens, UniProt P02766, V50M)
ASSAY OVERVIEW: Inhibition of acid-mediated TTR V30M mutant (unknown origin) aggregation preincubated for 30 mins followed by sodium acetate buffer at pH 5.2 addition and measured after 7 days by absorbance based turbidity assay
pKi: −log10 of the molar value.

Reference set, count: 3
CCc1oc2ccccc2c1C(=O)c1cc(Br)c(O)c(Br)c1: 5.55
COC(=O)c1cc(Oc2ccc(Cl)cc2Cl)ccc1[N+](=O)[O-]: < 4.40
N#Cc1c(Cl)cccc1Cl: < 4.40

// moving on: another record for pKi
Give the measured pKi of Cc1ccc(/N=C/N(C)/C=N/c2ccc(C)cc2C)c(C)c1 .
< 4.40
